- system under test: Tubulin
- procedure summary: Inhibition of tubulin (unknown origin) polymerization
assay metric: IC50 (nM)
Your answer should be a plain number; it is taken to be in nM.

COc1ccc(-c2csc3c2-n2cccc2C3=O)cc1O ... 2900

Now, please, on to the next molecule.
Can you look up the measured IC50 of COc1cc([C@@H]2c3cc4c(cc3C[C@H]3COC(=O)[C@@H]32)OCO4)cc(OC)c1OC [DESOXYPODOPHYLLOTOXIN] for me?
2400
